Source listed as patent US20230322747A1.

# Test system: Human HDAC6 (Homo sapiens (Human))
# Sequence (Q9UBN7 whole entry): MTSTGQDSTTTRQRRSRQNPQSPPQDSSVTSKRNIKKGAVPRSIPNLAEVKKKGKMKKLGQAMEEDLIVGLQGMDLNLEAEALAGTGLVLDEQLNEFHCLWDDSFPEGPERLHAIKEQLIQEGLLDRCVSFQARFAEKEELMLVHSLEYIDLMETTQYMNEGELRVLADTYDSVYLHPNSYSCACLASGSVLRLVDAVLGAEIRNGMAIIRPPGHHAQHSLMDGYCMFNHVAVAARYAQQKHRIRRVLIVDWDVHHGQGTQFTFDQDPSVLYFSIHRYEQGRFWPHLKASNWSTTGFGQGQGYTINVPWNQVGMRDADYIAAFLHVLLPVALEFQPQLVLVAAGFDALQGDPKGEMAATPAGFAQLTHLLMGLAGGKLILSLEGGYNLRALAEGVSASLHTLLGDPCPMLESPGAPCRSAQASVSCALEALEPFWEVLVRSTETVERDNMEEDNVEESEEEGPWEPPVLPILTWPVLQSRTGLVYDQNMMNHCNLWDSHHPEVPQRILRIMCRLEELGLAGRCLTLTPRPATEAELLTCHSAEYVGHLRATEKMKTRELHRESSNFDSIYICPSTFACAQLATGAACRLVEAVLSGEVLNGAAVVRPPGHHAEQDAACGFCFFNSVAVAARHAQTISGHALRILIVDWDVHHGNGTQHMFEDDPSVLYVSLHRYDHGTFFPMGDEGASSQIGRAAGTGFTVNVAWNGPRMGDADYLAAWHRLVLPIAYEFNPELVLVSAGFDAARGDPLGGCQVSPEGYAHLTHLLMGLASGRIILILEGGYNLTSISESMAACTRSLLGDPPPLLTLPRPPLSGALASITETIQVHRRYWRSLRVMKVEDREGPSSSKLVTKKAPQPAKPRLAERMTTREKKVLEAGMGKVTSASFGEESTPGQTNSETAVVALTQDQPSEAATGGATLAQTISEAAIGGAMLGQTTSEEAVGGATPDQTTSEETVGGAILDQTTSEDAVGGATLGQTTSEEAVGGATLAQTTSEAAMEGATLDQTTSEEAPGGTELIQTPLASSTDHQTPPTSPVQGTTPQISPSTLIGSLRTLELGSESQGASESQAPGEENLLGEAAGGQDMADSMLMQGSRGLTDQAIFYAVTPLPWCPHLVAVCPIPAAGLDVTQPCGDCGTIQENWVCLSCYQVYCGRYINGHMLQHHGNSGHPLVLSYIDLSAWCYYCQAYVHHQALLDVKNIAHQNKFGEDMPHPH
# Method: HDAC6 enzymatic activity assay (Caliper endpoint or fluorogenic format)
# Type: biochemical
# Condition description: ratio of HDAC8 IC50/HDAC6 IC50
Parameter: Selectivity (6 v 8) (fold)

As a guide, the following entries are already answered.
Cc1nc2cc(OCc3ccc(-c4nnc(C(F)F)o4)cn3)ccc2o1 ... IV (IV: >100-1000)
Fc1ccc(OC(F)(F)c2ccc(-c3nnc(C(F)F)o3)cn2)cc1 ... V (V: >1000)
N#CCc1ccccc1OCc1ccc(-c2nnc(C(F)F)o2)cn1 ... V (V: >1000)
FC(F)c1nnc(-c2ccc(COc3cccc4cncnc34)nc2)o1 ... V (V: >1000)
N#Cc1ccc(OCc2ccc(-c3nnc(C(F)F)o3)cn2)cc1 ... V (V: >1000)
N#Cc1cccc(F)c1OCc1ccc(-c2nnc(C(F)F)o2)cn1 ... V (V: >1000)
FC(F)c1nnc(-c2ccc(COc3cccc4ocnc34)nc2)o1 ... V (V: >1000)
Cc1nc(Cl)cc(OCc2ccc(-c3nnc(C(F)F)o3)cn2)n1 ... III (III: >10-100)

Query: // output Selectivity (6 v 8) (fold); input "Cc1cc(OCc2ccc(-c3nnc(C(F)F)o3)cn2)ccn1" ; system Human HDAC6 (Homo sapiens (Human))
Reply: V (V: >1000)

Query: // output Selectivity (6 v 8) (fold); input "Fc1ccc(OCc2ccc(-c3nnc(C(F)F)o3)cn2)c(F)c1" ; system Human HDAC6 (Homo sapiens (Human))
Reply: V (V: >1000)

Query: // output Selectivity (6 v 8) (fold); input "N#CCc1ccc(OCc2ccc(-c3nnc(C(F)F)o3)cn2)cc1" ; system Human HDAC6 (Homo sapiens (Human))
Reply: IV (IV: >100-1000)

Query: // output Selectivity (6 v 8) (fold); input "Cn1cc(OCc2ccc(-c3nnc(C(F)F)o3)cn2)cn1" ; system Human HDAC6 (Homo sapiens (Human))
Reply: V (V: >1000)

Query: // output Selectivity (6 v 8) (fold); input "FC(F)c1nnc(-c2ccc(COc3ccn4cnnc4c3)nc2)o1" ; system Human HDAC6 (Homo sapiens (Human))
Reply: IV (IV: >100-1000)

Query: // output Selectivity (6 v 8) (fold); input "FC(F)c1nnc(-c2ccc(COc3cncc4ccccc34)nc2)o1" ; system Human HDAC6 (Homo sapiens (Human))
Reply: V (V: >1000)

Query: // output Selectivity (6 v 8) (fold); input "Fc1ccc(OCc2ncc(-c3nnc(C(F)F)o3)cc2F)cc1" ; system Human HDAC6 (Homo sapiens (Human))
Reply: V (V: >1000)
